Exercise: state measured inhibition at 1000 µM for each of the compounds provided.
System: EpiDerm™ inserts
ASSAY PROCEDURE: UVB induced sun burn cell (SBC) formation using EpiDerm
Type: cell-based
PROTOCOL CONDITIONS: light or radiation study; 1 mM topical, 6 hours; UVB 200 mJ/cm^2; fixed after 24 hours
One number for each entry, in %.

c1coc(CNc2ncnc3[nH]cnc23)c1 62
COc1cc(/C=C/C(=O)O)ccc1O 64
COC1=C(OC)C(=O)C(C/C=C(\C)CC/C=C(\C)CC/C=C(\C)CC/C=C(\C)CC/C=C(\C)CC/C=C(\C)CC/C=C(\C)CC/C=C(\C)CC/C=C(\C)CCC=C(C)C)=C(C)C1=O 46

Problem: Please give the measured inhibition at 1000 µM for this compound: O=C1O[C@H]([C@@H](O)CO)C(O)=C1O
Solution: 31
